We begin with a simple list: items and their reported CC50 at 72 h.
# MEASUREMENT_NOTES: Cytotoxicity screening via crystal violet assay
# Assay type: cell-based
# MEASUREMENT_CONDITIONS: African green monkey, Vero cells
REPORTED_ENDPOINT: CC50 at 72 h (µg/mL)

>>> print(df.to_string())
                                   compound  value
0  N#CC1(/N=N/c2ccccc2)C(=O)NC(=S)NC12CCCCC2 (stereo not drawn)   43.9
1  N#CC1(/N=N/c2ccc(S(N)(=O)=O)cc2)C(=O)NC(=S)NC12CCCCC2 (stereo not drawn)    124
2  N#CC1(/N=N/c2ccc(S(=O)(=O)Nc3ncccn3)cc2)C(=O)NC(=S)NC12CCCCC2 (stereo not drawn)   53.7
3  CC(=O)C(SC1NC(=O)C(C#N)(/N=N/c2ccc(S(=O)(=O)Nc3ccccn3)cc2)C2(CCCCC2)N1)C(C)=O (stereo not drawn)   42.1
4  CC(=O)C(SC1NC(=O)C(C#N)C2(CCCCC2)N1)C(=O)Nc1ccccc1 (stereo not drawn)    509
5  CC(=O)C(SC1NC(=O)C(C#N)(/N=N/c2ccc(S(N)(=O)=O)cc2)C2(CCCCC2)N1)C(C)=O (stereo not drawn)    940

* * *

# MEASUREMENT_NOTES: Cytotoxicity screening via crystal violet assay
# Assay type: cell-based
# MEASUREMENT_CONDITIONS: African green monkey, Vero cells
We begin with a simple list: items and their reported CC50 at 72 h.
REPORTED_ENDPOINT: CC50 at 72 h (µg/mL)

>>> print(df.to_string())
                                   compound  value
0  N#CC1(/N=N/c2ccc(S(=O)(=O)Nc3nccs3)cc2)C(=O)NC(=S)NC12CCCCC2 (centres unmarked)    107
1  CC(=O)C(SC1NC(=O)C(C#N)(/N=N/c2ccc(Cl)cc2)C2(CCCCC2)N1)C(C)=O (centres unmarked)   62.4
2  N#CC1(/N=N/c2ccc(S(=O)(=O)Nc3ccccn3)cc2)C(=O)NC(=S)NC12CCCCC2 (centres unmarked)    466
3  CSC1NC(=O)C(C#N)C2(CCCCC2)N1 (centres unmarked)    566
4  N#CC1(/N=N/c2ccc(Cl)cc2)C(=O)NC(=S)NC12CCCCC2 (centres unmarked)    103

Origin of the recorded values: paper PMC11987438
